The measurements presented in this section are drawn from PubChem BioAssay AID1963826.

# Test system: 926638-142-R-J1-PDC complex spheroid viability
# assay_name: Anticancer human tumor 926638-142-R-J1-PDC patient-derived endometrial carcinoma cell line growth inhibition [POLQ]
# run_conditions: second compound 3.16 µM; first compound 0.0316 µM; hits give low values
# Description: Multicellular complex tumor spheroid response to Polymerase (POL) inhibitors (novobiocin, ART-558, RP6685) in combination with a variety of drugs and investigational agents in selected tumor cell lines The POL inhibitors (novobiocin, ART-558, and RP6685) were evaluated both individually and in combination with standard of care and investigational anticancer small molecules within a complex spheroid model of solid tumors. . […]
Note to self: use fulfilled only for viability, T/C readings below 90%; a reading exactly at 90% still gets not fulfilled.

| compound | group_label |
| --- | --- |
| COc1cccc(OCCCN)c1-c1cc(Nc2cnc(C#N)cn2)n[nH]1 + COC1C(OC(N)=O)C(O)C(Oc2ccc3c(O)c(NC(=O)c4ccc(O)c(CC=C(C)C)c4)c(=O)oc3c2C)OC1(C)C | fulfilled |

Challenge: Could you please tell me whether viability, T/C recorded for Cn1ncnc1[C@H]1c2n[nH]c(=O)c3cc(F)cc(c23)N[C@@H]1c1ccc(F)cc1 + Cc1cccc(N(C)C(=O)C2C(O)CCN2c2nc(C)cc(C(F)(F)F)c2C#N)c1 is less than 90%?
Response given: fulfilled

Challenge: Could you please tell me whether viability, T/C recorded for CC1COCCN1c1cc(C2(O)CC3CCC(C2)O3)c2cnn(-c3ccn[nH]3)c2n1 (stereo not given) + Nc1ccc(C#CCN(C(=O)Cc2ncc(C(F)(F)F)cc2C(F)(F)F)c2ccc(F)cc2)nn1 is less than 90%?
Response given: fulfilled

Challenge: Could you please tell me whether viability, T/C recorded for CC1COCCN1c1cc(C2(S(C)(=N)=O)CC2)nc(-c2ccnc3[nH]ccc23)n1 (stereo not given) + COC1C(OC(N)=O)C(O)C(Oc2ccc3c(O)c(NC(=O)c4ccc(O)c(CC=C(C)C)c4)c(=O)oc3c2C)OC1(C)C is less than 90%?
Response given: not fulfilled

---

# Tested on: 926638-142-R-J1-PDC complex spheroid viability
# assay_name: Anticancer human tumor 926638-142-R-J1-PDC cell line growth inhibition [POLQ];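 note: spheroids exposed to drugs for one week before readout; percent viability relative to DMSO vehicle control wells set as 100%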
# run_conditions: second compound 1 µM; first compound 0.1 µM; hits give low values
parameter: viability, T/C (%)
Output spec: scalar in %, unitless text.

Some solved cases for reference:
| compound | parameter | observed_measurement |
| --- | --- | --- |
| COc1cccc2c1C(=O)c1c(O)c3c(c(O)c1C2=O)CC(O)(C(=O)CO)CC3OC1CC(N)C(O)C(C)O1 (stereo not given) + Cc1cccc(N(C)C(=O)C2C(O)CCN2c2nc(C)cc(C(F)(F)F)c2C#N)c1 | viability, T/C | 50.4 |
| C#Cc1c(F)ccc2cc(O)cc(-c3ncc4c(N5CC6CCC(C5)N6)nc(OCC56CCCN5CC(F)C6)nc4c3F)c12 (stereo not given) + COC1C(OC(N)=O)C(O)C(Oc2ccc3c(O)c(NC(=O)c4ccc(O)c(CC=C(C)C)c4)c(=O)oc3c2C)OC1(C)C | viability, T/C | 81.7 |
| C#Cc1c(F)ccc2cc(O)cc(-c3ncc4c(N5CC6CCC(C5)N6)nc(OCC56CCCN5CC(F)C6)nc4c3F)c12 (stereo not given) + Nc1ccc(C#CCN(C(=O)Cc2ncc(C(F)(F)F)cc2C(F)(F)F)c2ccc(F)cc2)nn1 | viability, T/C | 101 |
| Nc1ccn(C2OC(CO)C(O)C2(F)F)c(=O)n1 (stereo not given) + COC1C(OC(N)=O)C(O)C(Oc2ccc3c(O)c(NC(=O)c4ccc(O)c(CC=C(C)C)c4)c(=O)oc3c2C)OC1(C)C | viability, T/C | 70.7 |

We now examine a further compound.
Challenge: // returns reported viability, T/C for input C=CC(=O)N1CCN(c2nc(=O)n(-c3c(C)ccnc3C(C)C)c3nc(-c4c(O)cccc4F)c(F)cc23)C(C)C1 (stereo not given) + COC1C(OC(N)=O)C(O)C(Oc2ccc3c(O)c(NC(=O)c4ccc(O)c(CC=C(C)C)c4)c(=O)oc3c2C)OC1(C)C
Response given: 87.9
